Where these numbers come from: paper PMC8704707

Procedure summary: in vitro
Test context: human, HepG2 cells
Quantity measured: IC50 at 24 h

>  <Record smiles>
CC(=O)Oc1c(I)cc(I)cc1/C=N/NC(=N)N

>  <IC50 at 24 h>
> 29 µM

$$$$
>  <Record smiles>
[H]/N=C(\N)NN=Cc1cc(I)cc(I)c1

>  <IC50 at 24 h>
< 11 µM

$$$$
>  <Record smiles>
NC(N)=NN=C1C(=O)Nc2ccccc21

>  <IC50 at 24 h>
> 500 µM

$$$$
>  <Record smiles>
NC(=S)N/N=C/c1ccc([N+](=O)[O-])o1

>  <IC50 at 24 h>
> 29 µM

$$$$
>  <Record smiles>
Cl.N=C(NN)N/N=C/c1cc(I)cc(I)c1O

>  <IC50 at 24 h>
> 100 µM

$$$$

Attention now turns to another entry.
The molecule listed as [H]/N=C(\N)NN=Cc1cc(I)cc(I)c1O has a reported IC50 at 24 h of > 29 µM
